biological target: HLA-B*15:01; experiment: IEDB peptide-MHC binding, purified MHC/direct/fluorescence; filed as Kd, often an IC50 or EC50 that approximates it; bounds were set here for any values at or beyond the usual limits of such assays; conditions: source organism: Cryptosporidium parvum
ATTRIBUTE MEASURED: Kd

Input line: Quote Kd reported for RLLRMNNEN please.
Output line: ≥ 20 µM

----------
target: HLA-B*46:01; assay: IEDB peptide-MHC binding, purified MHC/direct/fluorescence; filed as Kd, often an IC50 or EC50 that approximates it; bounds were set here for any values at or beyond the usual limits of such assays; details: source organism: Mycobacterium tuberculosis str. Haarlem
ATTRIBUTE MEASURED: Kd

Input line: State, for HLA-B*46:01, measured Kd of the sequence listed here: RVACRDVEV
Output line: ≥ 20 µM
